From: the supplement of paper PMC10307832

- Tested on: HCC-78
- procedure details: relative viability (nuclei count vs DMSO), 5 days (fraction); higher = more cells survive
- applied conditions: first compound 8 µM

molecule | relative viability
CCCCCCCCCCCC1=C(O)C(=O)C=C(O)C1=O [Embelin] + CS(=O)(=O)CCNCc1ccc(-c2ccc3ncnc(Nc4ccc(OCc5cccc(F)c5)c(Cl)c4)c3c2)o1 [Lapatinib] (partner 2 µM) | 0.616
CCCCCCCCCCCC1=C(O)C(=O)C=C(O)C1=O [Embelin] + CC1(C)CCC(c2ccc(Cl)cc2)=C(CN2CCN(c3ccc(C(=O)NS(=O)(=O)c4ccc(N[C@H](CCN5CCOCC5)CSc5ccccc5)c(S(=O)(=O)C(F)(F)F)c4)cc3)CC2)C1 [Navitoclax] (partner 0.5 µM) | 0.762
CCCCCCCCCCCC1=C(O)C(=O)C=C(O)C1=O [Embelin] + Nc1ncn([C@H]2C[C@H](O)[C@@H](CO)O2)c(=O)n1 [Decitabine] (partner 2 µM) | 0.675
